target: CB1 receptor (Homo sapiens, UniProt P21554); construct: expressed in transfected cells; host or cells: Xenopus laevis oocytes injected with cRNA; experiment: CB1 receptor activation by THC in combination with terpenes, Xenopus oocyte GIRK current; assay type: cell-based; conditions: terpene:THC weight/weight ratio 1:10; ratio of THC concentrations evoking 50% of maximal response with and without terpene
Sequence (P21554 whole entry): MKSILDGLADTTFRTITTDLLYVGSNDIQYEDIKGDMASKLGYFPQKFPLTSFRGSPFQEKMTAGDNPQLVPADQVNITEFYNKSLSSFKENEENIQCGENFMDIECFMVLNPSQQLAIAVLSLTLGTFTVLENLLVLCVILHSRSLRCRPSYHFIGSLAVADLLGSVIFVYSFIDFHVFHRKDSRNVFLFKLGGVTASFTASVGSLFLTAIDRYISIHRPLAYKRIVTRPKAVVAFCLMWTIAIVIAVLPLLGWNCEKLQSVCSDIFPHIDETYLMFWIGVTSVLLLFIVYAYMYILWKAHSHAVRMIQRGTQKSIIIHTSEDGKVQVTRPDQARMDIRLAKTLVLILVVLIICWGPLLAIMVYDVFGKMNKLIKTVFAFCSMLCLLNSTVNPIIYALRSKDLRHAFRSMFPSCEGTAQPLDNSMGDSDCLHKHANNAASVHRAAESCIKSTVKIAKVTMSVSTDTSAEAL
OBSERVABLE: Fold change of THC potency by terpene, at terpene:THC ratio of 1:10

COMPOUND | VALUE
C=C1CCC2(C(C)C)CC12 (stereo not drawn) [sabinene] | 1.685
C=C(C)[C@H]1CC=C(C)CC1 [limonene] | 3.369
CC(C)=CCC/C(C)=C/CO [geraniol] | 1.576
CC1(C)C2CCC1(C)C(O)C2 (stereo not drawn) [borneol] | 4.469
C=CC(C)=CCC=C(C)C [ocimene] | 2.639
C=CC(C)(O)CCC=C(C)C (stereo not drawn) [linalool] | 1.553
